Molecular target: HIV Env, isolate RHPA4259.7 (HIV)
Assay: cell-based or functional assay
Consider the following binders and their measured IC80 (µg/ml) with constrains readings.

Here's what some known entries look like.
>  <binder>
PGDM1400 (antibody, V domains shown) VH: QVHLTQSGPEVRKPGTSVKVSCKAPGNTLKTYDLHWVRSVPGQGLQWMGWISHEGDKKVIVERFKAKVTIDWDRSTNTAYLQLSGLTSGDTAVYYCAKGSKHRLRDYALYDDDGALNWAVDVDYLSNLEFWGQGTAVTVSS VL: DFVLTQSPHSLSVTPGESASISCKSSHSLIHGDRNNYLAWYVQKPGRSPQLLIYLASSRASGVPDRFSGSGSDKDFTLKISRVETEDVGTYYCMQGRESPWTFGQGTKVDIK

>  <IC80 (µg/ml) with constrains>
1.96 µg/mL

$$$$
>  <binder>
ePGDM5 (antibody, V domains shown) VH: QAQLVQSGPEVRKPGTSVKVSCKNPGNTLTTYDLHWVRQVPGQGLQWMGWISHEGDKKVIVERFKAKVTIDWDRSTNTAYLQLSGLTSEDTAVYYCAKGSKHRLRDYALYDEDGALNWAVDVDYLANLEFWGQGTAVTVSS VL: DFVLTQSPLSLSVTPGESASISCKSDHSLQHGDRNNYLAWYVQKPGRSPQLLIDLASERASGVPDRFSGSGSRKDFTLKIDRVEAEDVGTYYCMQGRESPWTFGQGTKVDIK

>  <IC80 (µg/ml) with constrains>
1.86 µg/mL

$$$$
>  <binder>
ePGDM9 (antibody, V domains shown) VH: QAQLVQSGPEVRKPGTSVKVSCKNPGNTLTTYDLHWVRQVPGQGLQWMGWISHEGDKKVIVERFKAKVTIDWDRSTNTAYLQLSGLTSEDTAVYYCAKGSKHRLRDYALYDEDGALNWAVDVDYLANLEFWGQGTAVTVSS VL: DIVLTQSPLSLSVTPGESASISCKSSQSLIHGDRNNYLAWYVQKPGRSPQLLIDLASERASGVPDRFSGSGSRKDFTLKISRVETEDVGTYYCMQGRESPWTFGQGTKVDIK

>  <IC80 (µg/ml) with constrains>
0.578 µg/mL

$$$$

Let us move to another entry and its IC80 (µg/ml) with constrains.
For record ePGDM13 (antibody, V domains shown) VH: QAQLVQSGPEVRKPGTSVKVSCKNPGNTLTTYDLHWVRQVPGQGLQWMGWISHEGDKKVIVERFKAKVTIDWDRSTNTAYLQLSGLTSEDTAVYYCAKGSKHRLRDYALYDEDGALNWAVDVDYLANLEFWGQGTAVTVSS VL: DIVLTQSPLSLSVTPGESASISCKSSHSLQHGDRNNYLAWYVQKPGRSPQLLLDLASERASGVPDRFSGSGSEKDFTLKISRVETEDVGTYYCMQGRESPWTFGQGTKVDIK the listed IC80 (µg/ml) with constrains is 1.43 µg/mL

Each recorded value in this set is attributed to patent US20230134571A1.
